# EXPERIMENTAL_TARGET: DRB1*04:01 (Homo sapiens, UniProt P01903+P01911, A100K/A169T/F76Y/I96L/K127E/L162R/M171V/N62H/P40V/Q125Y/R42H/S133A/S149N/S66Y/V115G/V209L/W38E)
# ASSAY_DETAILS: biochemical
Where a SMILES comes first, the peptide text is derived from it.
OBSERVABLE: pIC50
Please keep in mind that pIC50 is minus log10 of the molar concentration; only the number is needed.

CC(C)C[C@H](NC(=O)[C@H](CCC(N)=O)NC(=O)[C@H](CC(N)=O)NC(=O)[C@H](CC(C)C)NC(=O)[C@H](CCCNC(=N)N)NC(=O)[C@H](CC(=O)O)NC(=O)[C@H](CC(C)C)NC(=O)[C@H](CC(C)C)NC(=O)[C@H](CC(C)C)NC(=O)[C@H](CC(C)C)NC(=O)[C@H](C)NC(=O)[C@H](CC(C)C)NC(=O)[C@H](C)NC(=O)[C@H](C)NC(=O)[C@@H](N)CC(=O)O)C(=O)O [Ncl_44] (H-DAALALLLLDRLNQL-OH)	5.22

Next compound, pIC50 to be filled in.
Fill in pIC50 for record CC(C)C[C@H](NC(=O)[C@H](Cc1ccc(O)cc1)NC(=O)[C@H](Cc1ccc(O)cc1)NC(=O)[C@H](Cc1ccccc1)NC(=O)[C@H](Cc1ccc(O)cc1)NC(=O)[C@H](Cc1c[nH]c2ccccc12)NC(=O)[C@H](CCCNC(=N)N)NC(=O)[C@@H]1CCCN1)C(=O)NCC(=O)N[C@H](C(=O)NCC(=O)N1CCC[C@H]1C(=O)N[C@@H](CCC(=O)O)C(=O)N[C@@H](C)C(=O)NCC(=O)O)[C@@H](C)O [Ncl_22] (H-PRWYFYYLGTGPEAG-OH)
5.52

---

# EXPERIMENTAL_TARGET: DRB1*08:02 (Homo sapiens, UniProt P01903+P01911, A100R/A103L/A169T/F76Y/H45Y/I96F/K41T/L162R/M171V/P40S/Q125H/Q178H/Q39Y/Q99D/R218S/R42G/S66Y/V115G/W38E)
# ASSAY_DETAILS: biochemical
Where a SMILES comes first, the peptide text is derived from it.
Property: IC50; scope: individual molecules
Response body: numeric value in µM, unit text excluded.

CC[C@H](C)[C@H](NC(=O)[C@H](CCC(N)=O)NC(=O)[C@H](CC(=O)O)NC(=O)[C@@H](N)CC(=O)O)C(=O)NCC(=O)N[C@@H](Cc1ccc(O)cc1)C(=O)N[C@@H](Cc1ccc(O)cc1)C(=O)N[C@@H](CCCNC(=N)N)C(=O)N[C@@H](CCCNC(=N)N)C(=O)N[C@@H](C)C(=O)N[C@H](C(=O)N[C@@H](CCCNC(=N)N)C(=O)N[C@@H](CCCNC(=N)N)C(=O)N[C@H](C(=O)N[C@@H](CCCNC(=N)N)C(=O)O)[C@@H](C)CC)[C@@H](C)O [Ncl_P17] (H-DDQIGYYRRATRRIR-OH)	0.017
CSCC[C@H](NC(=O)[C@H](CCCCN)NC(=O)[C@H](CO)NC(=O)[C@H](CCC(=O)O)NC(=O)[C@H](CC(C)C)NC(=O)[C@H](CCC(N)=O)NC(=O)[C@H](CC(N)=O)NC(=O)[C@H](CC(C)C)NC(=O)[C@H](CCCNC(=N)N)NC(=O)[C@H](CC(=O)O)NC(=O)[C@H](CC(C)C)NC(=O)[C@H](CC(C)C)NC(=O)[C@H](CC(C)C)NC(=O)[C@@H](N)CC(C)C)C(=O)N[C@@H](CO)C(=O)O [Ncl_45] (H-LLLLDRLNQLESKMS-OH)	0.591
CC(C)C[C@H](NC(=O)[C@H](CC(N)=O)NC(=O)[C@H](CCCCN)NC(=O)[C@@H](NC(=O)[C@H](CCCNC(=N)N)NC(=O)[C@H](CO)NC(=O)[C@H](Cc1ccc(O)cc1)NC(=O)[C@@H](NC(=O)[C@H](Cc1ccc(O)cc1)NC(=O)[C@H](Cc1ccccc1)NC(=O)[C@H](CO)NC(=O)[C@@H]1CCCN1C(=O)[C@H](CCCCN)NC(=O)[C@@H](NC(=O)[C@@H](N)CC(C)C)C(C)C)C(C)C)C(C)C)C(=O)O [Env_11] (H-LVKPSFYVYSRVKNL-OH)	0.027

Fill in IC50 for record CC[C@H](C)[C@H](NC(=O)[C@H](CCCNC(=N)N)NC(=O)[C@H](CCCNC(=N)N)NC(=O)[C@@H](NC(=O)[C@H](C)NC(=O)[C@H](CCCNC(=N)N)NC(=O)[C@H](CCCNC(=N)N)NC(=O)[C@H](Cc1ccc(O)cc1)NC(=O)[C@@H](N)Cc1ccc(O)cc1)[C@@H](C)O)C(=O)N[C@@H](CCCNC(=N)N)C(=O)NCC(=O)NCC(=O)N[C@@H](CC(=O)O)C(=O)NCC(=O)N[C@@H](CCCCN)C(=O)O [Ncl_P18] (H-YYRRATRRIRGGDGK-OH)
0.078

Fill in IC50 for record CC[C@H](C)[C@H](NC(=O)CNC(=O)[C@H](CC(=O)O)NC(=O)[C@H](CCCCN)NC(=O)[C@H](CC(N)=O)NC(=O)[C@H](C)NC(=O)CNC(=O)[C@H](Cc1ccc(O)cc1)NC(=O)[C@@H]1CCCN1C(=O)[C@@H](N)CC(C)C)C(=O)N[C@H](C(=O)N[C@@H](Cc1c[nH]c2ccccc12)C(=O)N[C@H](C(=O)N[C@@H](C)C(=O)N[C@H](C(=O)O)[C@@H](C)O)C(C)C)[C@@H](C)CC [Ncl_25] (H-LPYGANKDGIIWVAT-OH)
10.6

Fill in IC50 for record CC(C)C[C@H](NC(=O)[C@H](C)NC(=O)[C@@H](NC(=O)[C@H](Cc1ccccc1)NC(=O)[C@H](Cc1c[nH]c2ccccc12)NC(=O)[C@@H](N)CO)[C@@H](C)O)C(=O)N[C@H](C(=O)N[C@@H](CCC(N)=O)C(=O)N[C@@H](Cc1c[nH]cn1)C(=O)NCC(=O)N[C@@H](CCCCN)C(=O)N[C@@H](CCC(=O)O)C(=O)N[C@@H](CC(=O)O)C(=O)N[C@@H](CC(C)C)C(=O)N[C@@H](CCCCN)C(=O)O)[C@@H](C)O [Ncl_11] (H-SWFTALTQHGKEDLK-OH)
0.795

Fill in IC50 for record CC(C)C[C@H](NC(=O)[C@H](Cc1ccc(O)cc1)NC(=O)[C@H](Cc1ccc(O)cc1)NC(=O)[C@H](Cc1ccccc1)NC(=O)[C@H](Cc1ccc(O)cc1)NC(=O)[C@H](Cc1c[nH]c2ccccc12)NC(=O)[C@H](CCCNC(=N)N)NC(=O)[C@@H]1CCCN1)C(=O)NCC(=O)N[C@H](C(=O)NCC(=O)N1CCC[C@H]1C(=O)N[C@@H](CCC(=O)O)C(=O)N[C@@H](C)C(=O)NCC(=O)O)[C@@H](C)O [Ncl_22] (H-PRWYFYYLGTGPEAG-OH)
1.23

Fill in IC50 for record CC[C@H](C)[C@H](NC(=O)[C@H](CCCNC(=N)N)NC(=O)[C@H](CC(C)C)NC(=O)[C@H](Cc1c[nH]cn1)NC(=O)CNC(=O)[C@@H](N)CCCNC(=N)N)C(=O)N[C@@H](C)C(=O)NCC(=O)N[C@@H](Cc1c[nH]cn1)C(=O)N[C@@H](Cc1c[nH]cn1)C(=O)N[C@@H](CC(C)C)C(=O)NCC(=O)N[C@@H](CCCNC(=N)N)C(=O)N[C@@H](CS)C(=O)N[C@@H](CC(=O)O)C(=O)O [Mem_30] (H-RGHLRIAGHHLGRCD-OH)
0.065

Fill in IC50 for record CC[C@H](C)[C@H](NC(=O)CNC(=O)[C@H](CC(=O)O)NC(=O)[C@H](CCCCN)NC(=O)[C@@H](N)CC(N)=O)C(=O)N[C@H](C(=O)N[C@@H](Cc1c[nH]c2ccccc12)C(=O)N[C@H](C(=O)N[C@@H](C)C(=O)N[C@H](C(=O)N[C@@H](CCC(=O)O)C(=O)NCC(=O)N[C@@H](C)C(=O)N[C@@H](CC(C)C)C(=O)N[C@@H](CC(N)=O)C(=O)O)[C@@H](C)O)C(C)C)[C@@H](C)CC [Ncl_26] (H-NKDGIIWVATEGALN-OH)
6.5

---

# EXPERIMENTAL_TARGET: DRB5*01:01 (Homo sapiens, UniProt P01903+Q30154)
# ASSAY_DETAILS: biochemical
Where a SMILES comes first, the peptide text is derived from it.
OBSERVABLE: IC50 (nM)
Response body: numeric value in nM, unit text excluded.

CC[C@H](C)[C@H](NC(=O)CNC(=O)[C@H](CC(=O)O)NC(=O)[C@H](CCCCN)NC(=O)[C@H](CC(N)=O)NC(=O)[C@H](C)NC(=O)CNC(=O)[C@H](Cc1ccc(O)cc1)NC(=O)[C@@H]1CCCN1C(=O)[C@@H](N)CC(C)C)C(=O)N[C@H](C(=O)N[C@@H](Cc1c[nH]c2ccccc12)C(=O)N[C@H](C(=O)N[C@@H](C)C(=O)N[C@H](C(=O)O)[C@@H](C)O)C(C)C)[C@@H](C)CC [Ncl_25] (H-LPYGANKDGIIWVAT-OH)	1670

Using DRB5*01:01 (Homo sapiens, UniProt P01903+Q30154) as the test system, report measured IC50 of CC[C@H](C)[C@H](NC(=O)CNC(=O)[C@H](CC(=O)O)NC(=O)[C@H](CCCCN)NC(=O)[C@@H](N)CC(N)=O)C(=O)N[C@H](C(=O)N[C@@H](Cc1c[nH]c2ccccc12)C(=O)N[C@H](C(=O)N[C@@H](C)C(=O)N[C@H](C(=O)N[C@@H](CCC(=O)O)C(=O)NCC(=O)N[C@@H](C)C(=O)N[C@@H](CC(C)C)C(=O)N[C@@H](CC(N)=O)C(=O)O)[C@@H](C)O)C(C)C)[C@@H](C)CC [Ncl_26] (H-NKDGIIWVATEGALN-OH) .
735

Using DRB5*01:01 (Homo sapiens, UniProt P01903+Q30154) as the test system, report measured IC50 of CC(C)C[C@H](NC(=O)[C@H](Cc1ccc(O)cc1)NC(=O)[C@H](Cc1ccc(O)cc1)NC(=O)[C@H](Cc1ccccc1)NC(=O)[C@H](Cc1ccc(O)cc1)NC(=O)[C@H](Cc1c[nH]c2ccccc12)NC(=O)[C@H](CCCNC(=N)N)NC(=O)[C@@H]1CCCN1)C(=O)NCC(=O)N[C@H](C(=O)NCC(=O)N1CCC[C@H]1C(=O)N[C@@H](CCC(=O)O)C(=O)N[C@@H](C)C(=O)NCC(=O)O)[C@@H](C)O [Ncl_22] (H-PRWYFYYLGTGPEAG-OH) .
1100
